The values you see were collected from PubChem BioAssay (NCI).

Tested on: HL-60(TB) leukemia
Test: NCI tumour cell line growth inhibition, 48 h
Consider the following compounds; for each one, report its TGI.

Param item = `N#Cc1nsnc1-c1nc(-c2nsnc2C#N)nc(-c2nsnc2C#N)n1` ; retrieve measured TGI.
> 100 µM

Param item = `CCOc1cc2ncc(C#N)c(Nc3ccc(F)c(Cl)c3)c2cc1NC(=O)/C=C/CN(C)C` ; retrieve measured TGI.
> 5.51 µM

Param item = `COc1ccc(NC(C)=O)c(C(=O)CCNC(C)=O)c1` ; retrieve measured TGI.
> 100 µM

Param item = CSCCCNC(=O)c1csc([C@@H](CSC)NC(=O)CCNC(=O)[C@@H](NC(=O)OCC(Br)(Br)Br)C(C)O)n1 (some centres undefined) ; retrieve measured TGI.
> 100 µM

---

Tested on: CCRF-CEM leukemia
Assay: NCI tumour cell line growth inhibition, 48 h
quantity: TGI

Report TGI for `Cn1c2ccc([N+](=O)[O-])cc2c(=O)c2c(O)cc(O)cc21` tested on CCRF-CEM leukemia.
> 100 µM

Report TGI for O=C(O)c1cc2c(cc1S(=O)(=O)O)C1C(C3C2C2(Cl)C(Cl)=C(Cl)C3(Cl)C2(Cl)Cl)C2(Cl)C(Cl)=C(Cl)C1(Cl)C2(Cl)Cl (configuration not stated) tested on CCRF-CEM leukemia.
37.3 µM

Report TGI for `Cc1nc(NC(=S)Nc2ccc(F)cc2)sc1C(=O)NNC(=S)Nc1ccc(F)cc1` tested on CCRF-CEM leukemia.
15.7 µM

Report TGI for `O=C(O)c1ccc(NS(=O)(=O)c2cccc3cccnc23)cc1` tested on CCRF-CEM leukemia.
> 100 µM

Report TGI for CNC1NC(=O)c2ccccc2N1Cc1ccc(F)cc1 (configuration not stated) tested on CCRF-CEM leukemia.
> 100 µM

Report TGI for `Cc1c(Cl)cccc1NC(=O)c1sc2nc3c(cc2c1N)CCCCCC3` tested on CCRF-CEM leukemia.
> 50 µM

Report TGI for `Cc1ccc(C2=Nc3ccccc3NC(=O)C2)cc1` tested on CCRF-CEM leukemia.
> 100 µM

Report TGI for `c1ccc2[nH]c(-c3ccc(OCCCCCOc4ccc(-c5nc6ccccc6[nH]5)cc4)cc3)nc2c1` tested on CCRF-CEM leukemia.
0.54 µM

Report TGI for CSCCCNC(=O)c1csc([C@@H](CSC)NC(=O)CCNC(=O)[C@@H](NC(=O)OCC(Br)(Br)Br)C(C)O)n1 (some centres not stated) tested on CCRF-CEM leukemia.
> 100 µM

Report TGI for `Cc1ccc(NC2=C(Sc3ccc(Cl)cc3)C(=O)N(Cc3ccccc3)C2=O)cc1Cl` tested on CCRF-CEM leukemia.
23.1 µM

Report TGI for `O=C(CNC(=O)c1cccc2ccccc12)Nc1ccccc1Oc1ccccc1` tested on CCRF-CEM leukemia.
> 10 µM

Report TGI for `Cc1ccc(NC(=S)NNC(=O)c2cc(-c3ccccc3)nc3ccccc23)cc1C` tested on CCRF-CEM leukemia.
52 µM

Report TGI for `Cc1ccc(C(=O)N/N=C/c2cccc(Oc3ccccc3)c2)cn1` tested on CCRF-CEM leukemia.
> 100 µM

Report TGI for `C=CCN=C1N=C(CC(=O)OCC)CS1` tested on CCRF-CEM leukemia.
> 100 µM

Report TGI for CC1OC(OC2C(Oc3cc(O)c4c(=O)cc(-c5ccc(O)cc5)oc4c3)OC(CO)C(O)C2O)C(O)C(O)C1O (configuration not stated) tested on CCRF-CEM leukemia.
> 100 µM

Report TGI for `Cc1cc(S(N)(=O)=O)c(S/C(=N\Nc2ccc([N+](=O)[O-])cc2)c2ccc(Cl)cc2)cc1Cl` tested on CCRF-CEM leukemia.
> 100 µM

Report TGI for `O=S(=O)(O)Nc1ccc(-c2nc3ccccc3s2)cc1Cl` tested on CCRF-CEM leukemia.
> 100 µM

Report TGI for `N#CC1(c2nc3ccccc3o2)C(=O)C(=O)N(c2ccc(Cl)c(Cl)c2)C(=O)C1=O` tested on CCRF-CEM leukemia.
> 100 µM

Report TGI for `OCCCN(CCc1ccc(Cl)c(Cl)c1)CCN1CCCC1` tested on CCRF-CEM leukemia.
> 100 µM

Report TGI for `Cn1c2ccccc2n2c3ccccc3c(=S)c(C#N)c12` tested on CCRF-CEM leukemia.
> 100 µM

Report TGI for `CNS(=O)(=O)NN(C)S(=O)(=O)c1ccc(Br)cc1` tested on CCRF-CEM leukemia.
> 100 µM

Report TGI for `CNC=O` tested on CCRF-CEM leukemia.
> 10000 µM

Report TGI for CC(=O)O/C(=C(/C#N)C(=O)O)C1C(C(=O)O)C(c2ccccc2[N+](=O)[O-])C=C(c2ccco2)N1c1ccncc1 (configuration not stated) tested on CCRF-CEM leukemia.
> 100 µM

Report TGI for `CCC(/C=C/c1ccccc1)=N\NC(=S)N/N=C(/C=C/c1ccccc1)CC` tested on CCRF-CEM leukemia.
> 100 µM

Report TGI for `COc1ccc(/C=N/n2c(C)n[nH]c2=O)cc1` tested on CCRF-CEM leukemia.
> 100 µM

Report TGI for `N#CC(C#N)=CN1CCN(C(=O)c2ccccc2)C1=S` tested on CCRF-CEM leukemia.
> 100 µM

Report TGI for `CC1(C)N=C(N)N=C(N)N1c1cccc(CCCCc2ccc(S(=O)(=O)F)cc2Cl)c1` tested on CCRF-CEM leukemia.
36.5 µM

Report TGI for `O=C1C(Cl)=C(N2CCOCC2)C(=O)c2ccccc21` tested on CCRF-CEM leukemia.
6.77 µM

Report TGI for CO/N=C1/C(n2[nH]c(=O)n(-c3ccccc3)c2=O)C2C=CC1n1c(=O)n(-c3ccccc3)c(=O)n12 (configuration not stated) tested on CCRF-CEM leukemia.
> 100 µM

Report TGI for `COc1ccc(CN=C2Nc3ccncc3S(=O)(=O)N2c2ccccc2)cc1` tested on CCRF-CEM leukemia.
82.4 µM

Report TGI for `CCOC(=O)/C=C/[C@H](O[Si](c1ccccc1)(c1ccccc1)c1ccccc1)C(C)(C)C` tested on CCRF-CEM leukemia.
> 31.6 µM

Report TGI for C=C(Br)C(Cl)(CBr)CCC(Br)C(C)(C)Cl (configuration not stated) tested on CCRF-CEM leukemia.
> 10 µM

---

Tested on: NCI-H460 lung
Assay: NCI tumour cell line growth inhibition, 48 h
Consider the following compounds; for each one, report its TGI.

Param item = `Cn1c(=O)c2[nH]c(COCc3nc4c([nH]3)c(=O)n(C)c(=O)n4C)nc2n(C)c1=O` ; retrieve measured TGI.
> 100 µM

Param item = `Cc1ccc(NNc2cc(=O)[nH]c(=O)[nH]2)cc1Cl` ; retrieve measured TGI.
> 100 µM

Param item = `N#Cc1nsnc1-c1nc(-c2nsnc2C#N)nc(-c2nsnc2C#N)n1` ; retrieve measured TGI.
> 100 µM

Param item = `COC(=O)[C@H]1ON2O[C@@H](O[C@H]3CCCC[C@@H]3C(C)(C)c3ccccc3)C[C@@H]3CC[C@H]1[C@@]32C` ; retrieve measured TGI.
> 100 µM

Param item = NC1CCC[C@@H](O)[C@H]1O (stereo partly specified) ; retrieve measured TGI.
> 100 µM

Param item = CCCCCC(/C=N/NC(N)=S)C(O)(C(F)(F)F)C(F)(F)F (stereo unspecified) ; retrieve measured TGI.
> 10 µM

---

Tested on: CAKI-1 renal
Assay: NCI tumour cell line growth inhibition, 48 h
Binary call on TGI: t from 10 µM upward, f beneath that.

Would you say `CCS(=O)(=O)c1ccc(OC)c(Nc2nccc(N(C)c3ccc4c(C)[nH]nc4c3)n2)c1` shows TGI at minimum 10 µM?
t

Would you say CCOC(=O)C1(Cc2ccccc2)CCN(C(=O)c2ccccc2)C2C1C2(Cl)Cl (stereo not drawn) shows TGI at minimum 10 µM?
t

Would you say `C/C=C/[C@@H]1O[C@H](CC#C[Si](C)(C)C)[C@@]2(C=O)C(C)=CC[C@H](C(C)C)[C@@H]12` shows TGI at minimum 10 µM?
f

Would you say `CCO[C@H]1C[C@@H](c2ccccc2)[C@]2(C)C[C@H](C(=O)OC)ON2O1` shows TGI at minimum 10 µM?
t

Would you say `COc1cc(-c2cn(-c3ccc(Cl)cc3)c(=O)[nH]2)cc(OC)c1OC` shows TGI at minimum 10 µM?
t

Would you say `CCc1ccc(CCC(=O)Nc2ncc(Cc3ccccc3)s2)o1` shows TGI at minimum 10 µM?
t

Would you say `O=C(CNC(=O)c1cccc2ccccc12)Nc1ccccc1Oc1ccccc1` shows TGI at minimum 10 µM?
t

Would you say `C=C(CN1CCN(c2ccccc2F)CC1)c1ccc(C(=O)Nc2ccccc2N)cc1` shows TGI at minimum 10 µM?
f

Would you say `O=C(COC(=O)c1ccccc1)c1ccc(Br)cc1` shows TGI at minimum 10 µM?
f

Would you say C=CCOc1ccc(C2c3c([nH][nH]c3=O)CC(C)(O)C2C(=O)OC)cc1OC (stereo not drawn) shows TGI at minimum 10 µM?
t

Would you say `O=Cc1[nH]c2ccccc2c1Br` shows TGI at minimum 10 µM?
t

Would you say `CCCCN(CCCC)c1ccc(N=Nc2ccc(S(=O)(=O)O)cc2)cc1` shows TGI at minimum 10 µM?
t

Would you say CC(=O)O/C(=C(/C#N)C(=O)O)C1C(C(=O)O)C(c2ccccc2[N+](=O)[O-])C=C(c2ccco2)N1c1ccncc1 (stereo not drawn) shows TGI at minimum 10 µM?
t

Would you say CCOC(=O)NNC1(SC)NC(=O)c2c(cc(Cl)oc2=O)O1 (stereo not drawn) shows TGI at minimum 10 µM?
f

Would you say O=C1NC2(O)c3ccccc3C(=O)C2(O)N1c1ccccc1 (stereo not drawn) shows TGI at minimum 10 µM?
t

Would you say `CN(C)CCCn1c2c3ccccc3ccc2c2oc(=O)c3ccccc3c21` shows TGI at minimum 10 µM?
t

Would you say `O=C(c1ccco1)N1CCN(C(=O)c2ccco2)C1=S` shows TGI at minimum 10 µM?
t

Would you say `O=C(/C=C/c1ccc(Cl)c(Cl)c1)CCN1CCN(CCC(=O)/C=C/c2ccc(Cl)c(Cl)c2)CC1` shows TGI at minimum 10 µM?
t

Would you say `N#CC(C#N)=CN1CCN(C(=O)c2ccccc2)C1=S` shows TGI at minimum 10 µM?
t

Would you say COC1CC(OS(=O)(=O)c2ccc(C)cc2)C(OS(=O)(=O)c2ccc(C)cc2)C(COS(=O)(=O)c2ccc(C)cc2)O1 (stereo not drawn) shows TGI at minimum 10 µM?
f

Would you say Cn1c2c(c3ccccc31)CC(=O)N1CCCCC1C21OCCO1 (stereo not drawn) shows TGI at minimum 10 µM?
t

Would you say `COc1ccc2nc(NC(=O)C(=O)CC(=O)c3ccc(Cl)cc3)sc2c1` shows TGI at minimum 10 µM?
t

Would you say `Cc1cc(S(N)(=O)=O)c(S/C(=N\Nc2ccc([N+](=O)[O-])cc2)c2ccc(Cl)cc2)cc1Cl` shows TGI at minimum 10 µM?
t

Would you say `CC1(C)OC[C@@]2([C@@H]3CC[C@@H](C3)C2(C)C)N1O` shows TGI at minimum 10 µM?
t

Would you say `C#CC[C@H](c1nc2cc(Cl)ccc2c(=O)n1Nc1ccccc1)N(CCCN)C(=O)c1cccc(Cl)c1F` shows TGI at minimum 10 µM?
f

Would you say `COc1cc2c(OC)c(c1)CCCC1=CC(=O)C=C(CCC2)C1=O` shows TGI at minimum 10 µM?
t

Would you say `C#CCSc1cnc2ccccc2c1Sc1c[nH]c2ccccc2c1=O` shows TGI at minimum 10 µM?
t

Would you say `Cc1[nH]n(-c2nc(O)c(C)c(=O)[nH]2)c(=O)c1CCO` shows TGI at minimum 10 µM?
t

Would you say `CCOC(=O)CC[C@@H](NC(=O)c1ccc(NCc2ccc3nc(OC)c(OC)nc3c2)cc1)C(=O)OCC` shows TGI at minimum 10 µM?
t

Would you say `COc1ccc(C(=O)c2cc(OC)c(OC)c(OC)c2)cc1O` shows TGI at minimum 10 µM?
t

Would you say CCCCCC(/C=N/NC(N)=S)C(O)(C(F)(F)F)C(F)(F)F (stereo not drawn) shows TGI at minimum 10 µM?
t

Would you say `COc1cc(/C=C2\CCc3cc(OC)c(OC)cc3C2=O)cc(OC)c1` shows TGI at minimum 10 µM?
t

Would you say `C/C(=C1/N=C(c2cc([N+](=O)[O-])ccc2Cl)N(C2=CC=C(Cl)CC2)C1=O)c1cc2ccccc2oc1=O` shows TGI at minimum 10 µM?
t

Would you say `Cc1ccc(NNc2cc(=O)[nH]c(=O)[nH]2)cc1Cl` shows TGI at minimum 10 µM?
t

Would you say `CCOC(=O)c1cc2cc(CSc3ccccc3)ccc2oc1=O` shows TGI at minimum 10 µM?
t

Would you say CC1C=C(NCC2(CO)CCC2)NC(N)=N1 (stereo not drawn) shows TGI at minimum 10 µM?
t

Would you say `CCCN(CCC)C(=O)Cc1c2n(c3ccccc13)Cc1ccccc1-2` shows TGI at minimum 10 µM?
t

Would you say `Cn1c2ccccc2c2nnc(N/N=C/c3ccccn3)nc21` shows TGI at minimum 10 µM?
f
